Reference source for all entries: the nanobody polyreactivity screen of Harvey et al. (2022)

experiment.summary: yeast display, Sf9 membrane polyspecificity reagent, FACS + sequencing; frameworks hold sequencing errors

{"columns": ["input.sequence", "polyreactivity (PSR sort gate)"],
 "data": [
  ["QGQLQESGGGLVQAAGSLRMSCAASGTIFSEANMGWYRQAPGQVRELVATIGQGSTTNYADSVKGRFTISRDNAKNTVYLQMISLKPEETGVYYCAVVTVDPVGFVYWGQGTQVTVSS", "low polyreactivity"],
  ["QVQLVESGGGLVQAGGSLRLSCAASGYTFSRNAMGWYRQAPGKERELVAAITGSGGSTYYADSVKGRFTISRDNAKNTVYLQMNSLKPEDTAVYYCATEVKRGYVGFDYWGQGTQVTVSS", "low polyreactivity"],
  ["QVQLVESGGGLVQAGGSLRLSSAASGSTYVGYTMGWYRQAPGKERELVAAITRRSGSTYYAVSVKGRFTISRDNAKNTVYLQLNSLKPEDTAVYYCAKDFSRYSRVAHTEHDYWGQGTQVTVSS", "high polyreactivity"],
  ["QGQLVESGGGLVQAGGSLRLSCAASGFTFWYYAKGWSRQAPRKEREMVAVINTSGASTYADSVKGRFTISRDNAKITVDLQMNSLKPEDTAVYYCAAEGIATYPYDYWGHGTQVTVSS", "low polyreactivity"],
  ["QVQLVESGGGLVQAGGSLRLSCAASGLIFSRYTMGWYRQAPGKERELVAAISKTGSSTYYADSVKGRFTISRDNAKNTVYLQMNSLKPEDTAVYYCAAETGTGETRYYRYWDYYYWGQGTQVTVSS", "high polyreactivity"],
  ["QVQLVESGGGIVQAGGSLRLSCAASGFTFWYYAMGWYRQAPGKERELVAVINTSGGSTYADSVKGRFTISRDNAKNTVYLQMNSLKPEDTAVYYCNKDFIYGYDAASYRPEYDYWGQGTQVTVSS", "low polyreactivity"],
  ["QVQLVESGGGLVQAGGSLRLSCAASGSIFYSYAMGWYRQAPGKERELVAAINSGGRTYYADSVKGRFTISRDNAKNTVYLQMNSLKPEDTAVYYCAARHRWGRAYDYWGQGTQVTVSS", "high polyreactivity"],
  ["QVQLVESGGGLVQAGGSLRLSCAASGLIFDSYDMGGSRQAPGKERELVAAIRRNGGSTYYADSLKGRFTISRDNAKNTVYLQMNSLIPEDTEVYYCAVDNSGYSGVYWVKMDYWGQGTQVTVSS", "low polyreactivity"],
  ["QVQLVESGGGLVQAGGSLRLSCAASGITFKGYTMGWYRQAPGKERELVATISRGGRTYADSVKGRFTISRDNAKNTVYLQMNSLKPEDTAVYYCAADKYWAQNDYWGQGTQVTVSS", "low polyreactivity"],
  ["QVQLVESGGGLVQAGGSLRLSCAASGSTFLYYAMGWYRPAPGKERELVAAIRWTAGSTYYADSVKGRFTISRDNAKNSVYLQMNSLKPEDTAVYYCAAVGYVRNYYTYEHWGQGTQVTVSS", "low polyreactivity"],
  ["QVQLVESGGGLVQAGGSLRLSCAASGSTFPVYAMGWYRQAPGKERELVAAISRSGASTYYAASVKGRFTISRDNAKNTVDLQMNSLKPDDTAVYYCARGYQGRLKYEYWGQGTQVTVSS", "low polyreactivity"],
  ["QVQLVESGGGLVQAGGSLRLSCAASGFIFPTYAMGWYRQAPGKERELVATITTNAGGTYYADSVKGRFTISRDNAKNTVYLQMNSLKPEDTAVYYCAHDYDGYVWDTEYDYWGQGTQVTVSS", "low polyreactivity"],
  ["HVQLVESGGGLVQEGRSLRLSCAASGFTFVGNAMGWYRQATGKERELVAAIRWSSGSTYYADSVKWRFTISRDNAKNTVYLQMNSLKPDDTAVYYCNAVYSVFYEYDYWGQGTQVTVSS", "low polyreactivity"],
  ["QVQLVESGGGLVQAGGSLRLSCAASGSIFGSYALGWYRQAPGKERELVAAISKSGGNTYYADSVKGRFTISRDNAKNTVYLQMNSLKPEDTAVYYCAARYRFLRPKVNYWGQGTQVTVSS", "high polyreactivity"],
  ["KVQLVDSGGGLVQAGGSLRLSCAASGSIFGDNAMGWYIQAPGKERELVAAISIVGSTSYADSVKGRFTISRDNAKNTVYLLMNSLKPEDTAVYYCAAENVRSDTGFDYCGQGTQVTVSS", "low polyreactivity"],
  ["QVQLVESGGGLVQAGGSLRLSCAASGFIFRRYAMGWYRQAPGKERELVAAISYNVVSTYYADSVKGRFTISRDNAKNTVYLQLNSLKPEVTAVYYCNTASSYRSFRYNYWGQGTQVTVSS", "high polyreactivity"],
  ["QVQLVESGGGLVQAGGSLRFSCAASGGIFFRNAMGWYRQAPGKERELVAVISSGGSTYYADSVKGRFTISRDNAKNTVYLQMNSLKPEDTAVYYCAARRKRPVYTVTLHYPYNYWGQGTQVTVSS", "high polyreactivity"],
  ["QVQLVESGGGLVQAGGSLRLSCAASGFIFSIYVMGWYRQAPGKERELVATISSTGSTNYADSVKGRFTISRDNAKNTVYLQMNSLKPEDTAVYYCAAYRRWWGQGTQVTVSS", "high polyreactivity"],
  ["QVQLVESGGGLVQAGGSLRLSCAASGIIFRLYAMGWYRQAPGKERELVAAISSGGSTYADSVKGRFTISRDNAKNTVYFQMNSLKPEDTAVYYCAAGRVWHLYWYNYWGQGTQVTVSS", "high polyreactivity"],
  ["QDQLVESGGGLDQAGCILRLSCAASGITFSVYTMGWSRQAPGKERELVAANDSDGITNYADSVKGRFTISRDNAKNTDYLQMNSLKPEDTAVYYCNAIADGSSSRWRPYSKFYYWGKGTQVTVSS", "low polyreactivity"],
  ["QVQLVESGGGLVQAGGSLRLSCAASGSTFDINAMGWYRQAPGKERELVAAISWGGGSTYYADSVKGRFTISRDNAKNTVYLQMNSLKPEDTAVYYCAKLKGTQPNRYDYWGQGTQVTVSS", "low polyreactivity"]
]}

* * *

experiment.summary: yeast display, Sf9 membrane polyspecificity reagent, FACS + sequencing; frameworks hold sequencing errors

{"columns": ["input.sequence", "polyreactivity (PSR sort gate)"],
 "data": [
  ["QVQLVESGGGLVQAGGSLRLSSAASGRIFYGYAMGWYRQAPGKERELVAGISKRGGSTRYADSVKGRFTISRDNAKNTVYLHMNSLKPEDTAVYYCNRLPYLHYAGRLTNYDYWGQGTQVTVSS", "high polyreactivity"],
  ["QVQLVESGGGLVQAGGSLRLSCAASGITFGSYAMGWYRQAPGKERELVAAINSRGSRTYYADSVKVRFTISRDNAKNTVYLQMNSLKPEDTAVYYCAASNSHVGPNDYWGQGTQVTVSS", "high polyreactivity"]
]}

* * *

experiment.summary: yeast display, Sf9 membrane polyspecificity reagent, FACS + sequencing; frameworks hold sequencing errors

{"columns": ["input.sequence", "polyreactivity (PSR sort gate)"],
 "data": [
  ["QVQLVESGGGLVQAGGSLRLSCAASGFTFYYYAMGWYRQAPGKERELVAAISRSGGSTYYADSVKGRFTISRDNAKNTVYLQMNSLKPEDTAVYYCAARRLVGAERPGYDYWGQGTQVTVSS", "high polyreactivity"],
  ["QVQLVESGGGLVQAGGSLRLSCAASGIIFRGNSMGWYRQAPGKERELVAAIRFSGGSTYYADSVKGRFTISRDYAKNTVYLQMNSLKPEDTAVYYFAATRRRYGSTTSEYYYWGQGTQVTVSS", "high polyreactivity"],
  ["QVQLVESGGGLVQAGGSLRLSCAASGRTIYRYALGWYRQAHGKERELVSRIRSGGSTNYADSVKGRFTISRDNAKNTVYLQMNSLKPEDTAVYYCAARVLDLGKNTYYRYALGYWGQGTQVTVSS", "high polyreactivity"],
  ["QVQLVESVVGLVQAGRSLRLSCAASGYTFWQYAMGWYRQAPGKERELVATITSRGGSTYYADSVKGRFTISRDTAKNSVYFQMNSLKPEDTAVYYCAARVYYPSTSNAAYGYCGQGTQVTVSS", "high polyreactivity"],
  ["QVQLVESGGGLVQAGGSLSLSCAASGYTFLRYAMGWYRQAPGQERELVATISRSGGRTYYADSVKGRFTISRDNAKNTVYLLMNSLKPEDTSVYYCNAEAIVVNGGGYWGQGTQVTVSS", "high polyreactivity"],
  ["QVKLVESGGGLVQAGGSLRLSCAASGGNFGNYAMGWYRQAPWKERELVATIRYRGGSTYYADSVKGRFTISRDNAKITVYLQMNSLIPEDTAVFYCAARRSHPQDPRFRYGYWGQATQVTVSS", "high polyreactivity"],
  ["QVHLQESGGGLVQAGGSLRLSCAASGTISDSGLMGWYRQAPGKERELVAGISSGGINNYADSVKGRFTISRDNAKYTEYLQMNSLKPEDTAVYWGQGTQVTLSS", "low polyreactivity"],
  ["QGQLVESGGGLVQAGGSLRLSCAASGFIFFSNAMGWYRQEPGKERELVAAISRIGVSTYYADSVKGRFTISRDNAKNTVYLQLNSLKPEDTAVYYCAADLSDYWRGDSWGQGTLVTVSS", "low polyreactivity"],
  ["QVQLVESGGGLVQAGGSLRLSCAASGRTFYWNAMGWYRQAPGKERELVAAITRNGGSTYYADSVKGRFTISRDNAKNTVYLQMNSLKPEDTAVYYCAARKRYGAGYDYWGQGTQVTVSS", "high polyreactivity"],
  ["QVQLVESGGGLVQAGGSLRLSCAASGSIFRKYALGWYRQAPGKERELVAAIRSSGGSTYYADSVKGRFTISRDNAKNTVYLQMNSLKPEDTAVYYCAARYYRPSRYDYWGQGTQVTVSS", "high polyreactivity"],
  ["QVQLVESGGGLVQAGGSLRLSCAASGSTFKWTAMGWYRPAPGKERELVAAITGSGTGTYYADSVKGRFTISRDNAKNTVYLQMNSLKPEDTAVYYCAAYVYGYKYYYWGQGTQVTVSS", "high polyreactivity"],
  ["QVQLVESGGGLVQAGGSLRLSCAASGLTQYKNGMGWYRQAPGKERELVAVISRSGGRTYYADSVKGRFTISRDNAKNTVYLQMNSLKPEDTAVYYCAARQYGPRYTYYYWGQGTQVTVSS", "high polyreactivity"],
  ["QVQLVESVGGLVQAGGSLRLSCAASGRIFTLYAMGWYRQAPGKERELVAAISWSGGSTYYADSVKGRFTISRDNAKNTVYLQMNSLKPEDTAVYYCAATWYRYYSIPRYDSWGQATQVTVSS", "high polyreactivity"],
  ["QVQLVESGGGLVQAGGSLRLSCAASGNIFPDYAMGWYRQAPGKERELVAAISTSGSSTYYADSVKGRFTISRDNAKNNDYLQMNSLKPEDTAVYYCNAYRNADYVYWGQGTQVTVSS", "low polyreactivity"],
  ["QVQLVESGGGLVQAGGSLRLSCAASGFIFTEYAMGWYRQAPGKEREFVAAISWSGGSTYYADSVKGRFTISRDNAKNTVYLQMNSLKPEDTAVYYCAKRSRGVKYDYWGQGTQVTVSS", "high polyreactivity"],
  ["QVQLVESGGGLVQAGGSLRLSCAASGSTFDGYAMGWYRQAPGKERELVAAISASGGSTYYADSVKGRFTISRDNAKNTVYLQMNSLKPEDTAVYYCAAQVRYLCYRYDYWGQGSQVTVSS", "high polyreactivity"],
  ["KVQLGESGGGLVQAGGSLRLSCAASGFIFGYNGMGWYRQAPGKERELVAGITYSDGSTYYADSVKGRFTISRDNAKNTVYLQMNSLKPEDTAVYYCAVDVIYYWAEDYDYWGQGTQVTVSS", "low polyreactivity"],
  ["QVQLVESGGGLVQAGGSLRLSCAASGRTFWVYAMGWYRQATGKERELVATISKSAGITSYADSVKGRFTFSRDNAKNTVYLQMNSLKPEDTAVFYCAADKSYRRVYYWGQGTQVTVSS", "low polyreactivity"],
  ["QVQLVESGGGLVQAGGSLSLSCAASGSTFNRYAMRSYRQAPGQESELVDTINLNTGSTYADSVKGRFTISRDNAKNTVYLEMNSVKPEDTAVYYCAAVGQTHPTSPLSTKYDYWGQGTQVTVSS", "low polyreactivity"],
  ["QVQLVESGGGLVQAGGSLRLSCAASGRTFGYYAMGWYRQAPGKEREFVAAISHSAGSTSYADSVKGRFTISRDNAKNTVYLQMNSLKPEDTAVYYCAADNPWYEMDYWGQGTQVTVSS", "low polyreactivity"],
  ["QVQLVESGGGLVQAGGSLRLSCAASGRIFYAYAMGWYRQAPGKERELVATITYGGGSTYYADSVKGRFTISRDNAKNTVDLQMNSLKPEATAVYYCAADRTGSTLYTIRYYYWGQGTQVTVSS", "low polyreactivity"]
]}
